Tested Target: Cytochrome P450 3A4 (Homo sapiens)
Sequence (P08684 whole entry): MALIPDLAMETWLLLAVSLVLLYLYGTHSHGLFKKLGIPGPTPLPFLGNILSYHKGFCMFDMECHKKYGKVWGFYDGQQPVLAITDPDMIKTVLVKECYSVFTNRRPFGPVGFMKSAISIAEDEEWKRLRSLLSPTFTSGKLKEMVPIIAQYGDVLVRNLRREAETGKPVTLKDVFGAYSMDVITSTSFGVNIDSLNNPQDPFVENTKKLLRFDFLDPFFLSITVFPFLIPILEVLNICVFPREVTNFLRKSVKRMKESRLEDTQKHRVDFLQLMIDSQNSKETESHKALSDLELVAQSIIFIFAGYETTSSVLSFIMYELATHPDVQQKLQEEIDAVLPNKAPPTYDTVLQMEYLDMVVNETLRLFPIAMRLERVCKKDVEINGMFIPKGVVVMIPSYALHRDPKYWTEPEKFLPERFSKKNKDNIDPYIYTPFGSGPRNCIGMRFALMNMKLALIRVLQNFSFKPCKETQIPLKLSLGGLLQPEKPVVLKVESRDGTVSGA
Experiment Description: Inhibition of recombinant CYP3A4 expressed in insect microsomes after 45 mins in presence of BZR substrate
Assay type: ADME, Microsome
Entries and their IC50 values follow.
Reported Property: IC50

smiles_string=O=C(N[C@H](Cc1ccc2[nH]ncc2c1)C(=O)N1CCC(N2CCCCC2)CC1)N1CCC(N2Cc3ccccc3NC2=O)CC1 tested_target="Cytochrome P450 3A4 (Homo sapiens)" result="4000 nM"
smiles_string=O=C(N[C@H](Cc1csc2ccccc12)C(=O)N1CCC(N2CCCCC2)CC1)N1CCC(N2Cc3ccccc3NC2=O)CC1 tested_target="Cytochrome P450 3A4 (Homo sapiens)" result="84 nM"
